- subject_of_test: FAK (Homo sapiens)
- protocol_text: Cell-based capture ELISA for inhibition of FAK autophosphorylation [pY397] in MiaPaCa2 cells
- setup_conditions: MIA-PaCa2 cells, + 50% mouse plasma (Table 3); read-out: Mean FAK Cell Mechanistic IC50 + 50% mP MIA-PaCa2
- Procedure: Cell-Based Assays for Inhibition of FAK Autophosphorylation: MiaPaCa2 and U87MG ELISA kit from Invitrogen (KHO0441). Reagents Provided in Biosource FAK [pY397] The cells were then suspended in cell assay medium.
reported_endpoint: IC50

Below are worked cases with known answers.
Query block: I am curious: what IC50 value has been reported for CCOP(=O)(Cc1ccc(Nc2ncc(C(F)(F)F)c(Nc3ccc(C(=O)O)c4c3C(=O)N(C)C4)n2)cc1)OCC ?
Result block: 1 to 10 µM

Query block: I am curious: what IC50 value has been reported for CCOP(=O)(Cc1ccc(Nc2ncc(C(F)(F)F)c(Nc3ccc([C@H]4CC[C@](C)(O)CC4)c4c3C(=O)N(C)C4)n2)cc1)OCC ?
Result block: < 1 µM

// moving on: another record for IC50
Query block: I am curious: what IC50 value has been reported for CCOP(=O)(Cc1ccc(Nc2ncc(C(F)(F)F)c(Nc3ccc(-c4cnn(C)c4)cc3C(=O)NC)n2)cc1)OCC ?
Result block: < 1 µM

###

- subject_of_test: FAK (Homo sapiens)
- protocol_text: Cell-based capture ELISA for inhibition of FAK autophosphorylation [pY397] in MiaPaCa2 cells
- setup_conditions: MIA-PaCa2 cells on fibronectin, 2 h, no plasma; read-out: Mean FAK Cell Mechanistic IC50 MIA-PaCa2
Quick list: IC50 per entry.

Query block: I am curious: what IC50 value has been reported for CCOP(=O)(OCC)C(C)(C)c1ccc(Nc2ncc(C(F)(F)F)c(Nc3ccccc3C(=O)NC)n2)cc1 ?
Result block: < 1 µM

Query block: I am curious: what IC50 value has been reported for CN(c1ncccc1CNc1nc(Nc2ccc(CP(C)(C)=O)cc2)ncc1C(F)(F)F)S(C)(=O)=O ?
Result block: 1 to 10 µM

Query block: I am curious: what IC50 value has been reported for CCOP(C)(=O)Cc1ccc(Nc2ncc(C(F)(F)F)c(Nc3ccc(C#CC(C)(C)O)c4c3C(=O)N(C)C4)n2)cc1 (stereo not shown) ?
Result block: < 1 µM

Query block: I am curious: what IC50 value has been reported for CCOP(=O)(Cc1ccc(Nc2ncc(C(F)(F)F)c(Nc3ccc(-c4cnn(C[C@H](O)CO)c4)c4c3C(=O)N(C)C4)n2)c(OC)c1)OCC ?
Result block: < 1 µM

###

- subject_of_test: FAK (Homo sapiens, UniProt Q05397)
- Sequence (Q05397 whole entry): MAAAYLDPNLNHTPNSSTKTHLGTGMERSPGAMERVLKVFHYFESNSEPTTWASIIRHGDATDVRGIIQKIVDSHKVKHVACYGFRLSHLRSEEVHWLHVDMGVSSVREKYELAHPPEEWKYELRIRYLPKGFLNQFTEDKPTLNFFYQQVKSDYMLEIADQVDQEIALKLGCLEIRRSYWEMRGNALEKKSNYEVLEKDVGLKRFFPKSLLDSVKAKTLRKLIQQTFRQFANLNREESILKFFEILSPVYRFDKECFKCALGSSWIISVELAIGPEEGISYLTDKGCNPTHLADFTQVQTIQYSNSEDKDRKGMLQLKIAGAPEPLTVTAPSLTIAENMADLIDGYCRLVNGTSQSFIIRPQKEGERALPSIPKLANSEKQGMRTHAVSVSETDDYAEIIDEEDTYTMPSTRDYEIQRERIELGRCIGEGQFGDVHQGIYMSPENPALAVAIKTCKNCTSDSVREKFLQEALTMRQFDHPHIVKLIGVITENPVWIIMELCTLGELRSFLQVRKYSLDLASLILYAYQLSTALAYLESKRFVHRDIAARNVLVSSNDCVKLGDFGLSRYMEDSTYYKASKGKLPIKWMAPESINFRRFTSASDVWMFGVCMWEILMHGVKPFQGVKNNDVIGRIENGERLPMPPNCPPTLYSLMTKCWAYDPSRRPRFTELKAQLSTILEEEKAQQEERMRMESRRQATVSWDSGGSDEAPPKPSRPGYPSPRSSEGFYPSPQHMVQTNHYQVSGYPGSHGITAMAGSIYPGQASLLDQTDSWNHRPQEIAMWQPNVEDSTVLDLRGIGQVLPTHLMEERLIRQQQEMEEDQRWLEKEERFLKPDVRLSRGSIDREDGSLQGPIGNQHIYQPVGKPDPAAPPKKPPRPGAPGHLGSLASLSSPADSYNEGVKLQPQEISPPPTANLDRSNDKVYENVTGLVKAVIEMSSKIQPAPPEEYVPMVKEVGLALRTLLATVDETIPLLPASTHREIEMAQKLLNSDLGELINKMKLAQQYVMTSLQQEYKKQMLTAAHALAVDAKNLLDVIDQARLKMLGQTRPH
- protocol_text: Cell-based capture ELISA for inhibition of FAK autophosphorylation [pY397] in U87MG cells
- setup_conditions: Mean FAK Cell Mechanistic IC50 + 50% mP U87MG, + 50% mouse plasma
pIC50: −log10 of the molar value.
reported_endpoint: pIC50

Below are worked cases with known answers.
Query block: I am curious: what pIC50 value has been reported for CCOP(=O)(Cc1ccc(Nc2ncc(C(F)(F)F)c(Nc3ccc([C@H]4CC[C@@H](C(=O)O)CC4)c4c3C(=O)N(C)C4)n2)cn1)OCC ?
Result block: 5.00 to 6.00

Query block: I am curious: what pIC50 value has been reported for CCOP(=O)(Cc1ccc(Nc2ncc(C(F)(F)F)c(Nc3ccc([C@H]4CC[C@@H](C(=O)NO)CC4)c4c3C(=O)N(C)C4)n2)c(OC)c1)OCC ?
Result block: > 6.00

Query block: I am curious: what pIC50 value has been reported for CCOP(=O)(Cc1ccc(Nc2ncc(C(F)(F)F)c(Nc3ccc(C4CCN(C)CC4)c4c3C(=O)N(C)C4)n2)c(OC)c1)OCC ?
Result block: > 6.00

Query block: I am curious: what pIC50 value has been reported for CCOP(=O)(Cc1cnc(Nc2ncc(C(F)(F)F)c(Nc3ccc([C@H]4CC[C@H](O)CC4)c4c3C(=O)N(C)C4)n2)c(OC)c1)OCC ?
Result block: 5.00 to 6.00

Query block: I am curious: what pIC50 value has been reported for CCOP(=O)(Cc1ccc(Nc2ncc(C(F)(F)F)c(Nc3ccc(-c4cnn(CCCO)c4)c4c3C(=O)N(C)C4)n2)cc1)OCC ?
Result block: > 6.00

// moving on: another record for pIC50
Query block: I am curious: what pIC50 value has been reported for CCOP(=O)(Cc1ccc(Nc2ncc(C(F)(F)F)c(Nc3ccc(C4CCC(O)(C(=O)O)CC4)c4c3C(=O)N(C)C4)n2)c(OC)c1)OCC (single isomer, unassigned) ?
Result block: 5.00 to 6.00
